Target: human histamine H4 receptor (Homo sapiens, UniProt Q9H3N8)
Construct: expressed in transfected cells; host or cells: SK-N-MC cells or COS7 cells, transiently transfected; cell membranes used
Sequence (Q9H3N8 whole entry): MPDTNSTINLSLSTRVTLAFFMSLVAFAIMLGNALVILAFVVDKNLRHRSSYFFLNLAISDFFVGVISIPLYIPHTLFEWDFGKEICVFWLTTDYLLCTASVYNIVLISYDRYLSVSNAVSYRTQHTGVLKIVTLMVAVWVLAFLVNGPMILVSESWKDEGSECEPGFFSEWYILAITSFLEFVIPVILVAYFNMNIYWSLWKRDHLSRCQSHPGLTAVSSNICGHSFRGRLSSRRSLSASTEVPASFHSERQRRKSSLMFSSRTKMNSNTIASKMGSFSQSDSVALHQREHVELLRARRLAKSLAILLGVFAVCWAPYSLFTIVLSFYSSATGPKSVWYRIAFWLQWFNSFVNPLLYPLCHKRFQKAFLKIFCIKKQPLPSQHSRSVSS
Test: Binding Assay on Recombinant Human Histamine H4 Receptor
Settings: competition binding with 3H-histamine (5 nM), membranes of SK-N-MC or COS7 cells expressing human H4 receptor; Cheng-Prusoff, KD 5 nM; average of results obtained; read-out: Ki
Where a name gives a salt, the structure may show the parent alone.
measurement.label: pKi
Give bare numbers, as −log10 of the molar value.

// known answers, use as guide
Item under review: CN[C@@H]1CCN(c2nc(N)nc3c2sc2ccc(Cl)cc23)C1 [Example 66, trifluoroacetic acid salt] . Reported pKi?
9.00

Which pKi is reported for this compound? CN[C@@H]1CCN(c2nc(N)nc3c2oc2ccc(Br)cc23)C1 [Example 19, trifluoroacetic acid salt]
9.13

Would you kindly share the measured pKi for Nc1nc(N2CC(N)C2)c2oc3ccc(F)c(F)c3c2n1 [Example 150, trifluoroacetic acid salt] ?
5.27

Would you kindly share the measured pKi for CN1CCN(c2nc(N)nc3c2oc2ccc(Cl)c(Cl)c23)CC1 [Example 101, trifluoroacetic acid salt] ?
8.11

For each of the compounds below, note its pKi.
1. CN[C@@H]1CCN(c2nc(N)nc3c2oc2ncc(Cl)cc23)C1
2. CN[C@@H]1CCN(c2nc(N)nc3c2oc2ncccc23)C1
3. CN(C)C1CCN(c2nc(N)nc3c2oc2c(Cl)cc(Cl)cc23)C1 (stereo not drawn) [Example 35, trifluoroacetic acid salt]
4. NC[C@H]1CCN(c2nc(N)nc3c2oc2ccc(Cl)cc23)C1 [Example 30, trifluoroacetic acid salt]
5. Nc1nc(N2CCNCC2)c2oc3cccc(Cl)c3c2n1 [Example 153, trifluoroacetic acid salt]
6. Nc1nc(N2CC3CNCC3C2)c2oc3ccc(Cl)cc3c2n1 (stereo not drawn) [Example 27, trifluoroacetic acid salt]
7. C[C@@H]1CNCCN1c1nc(N)nc2c1oc1ccc(Cl)cc12 [Example 132, trifluoroacetic acid salt]

1: 6.59; 2: 7.15; 3: 6.42; 4: 6.85; 5: 5.99; 6: 6.96; 7: 6.92

Batch lookup, pKi per entry.
1. CN[C@@H]1CCN(c2nc(N)nc3c2sc2ccc(Br)cc23)C1 [Example 48, hydrochloride salt]
2. CN1CCN(c2nc(N)nc3c2sc2ccc(Cl)cc23)CC1 [Example 67, trifluoroacetic acid salt]

[8.68, 7.85]

Working through the 7 compounds below one at a time, give pKi for each.
1. CC(C)N1CCN(c2nc(N)nc3c2oc2ccc(Cl)cc23)CC1 [Example 34, trifluoroacetic acid salt]
2. C[C@@H]1CN(c2nc(N)nc3c2oc2ccc(Cl)cc23)CCN1 [Example 134, trifluoroacetic acid salt]
3. Nc1nc(N2CCC(N)C2)c2oc3ccccc3c2n1 (stereo not drawn) [Example 21, trifluoroacetic acid salt]
4. CN[C@H]1CCN(c2nc(N)nc3c2sc2cc(Cl)ccc23)C1 [Example 61, trifluoroacetic acid salt]
5. CN[C@H]1CCN(c2nc(N)nc3c2sc2cc(Br)ccc23)C1 [Example 57, trifluoroacetic acid salt]
6. CC(C)N1CCCN(c2nc(N)nc3c2oc2ccc(Cl)cc23)CC1 [Example 3, trifluoroacetic acid salt]
7. Nc1nc(N2CCC(N)C2)c2oc3c(Cl)cc(Cl)cc3c2n1 (stereo not drawn) [Example 4, trifluoroacetic acid salt]

1: 6.62; 2: 7.30; 3: 8.24; 4: 7.48; 5: 6.82; 6: 7.12; 7: 7.51
